Tested on: HOP-62
PROTOCOL SUMMARY: NCI tumour cell line growth inhibition, 48 h
Active and inactive are the calls of the source. Rule as the data show it: active = GI50 up to about 1.1 µM and inactive = higher.
MEASURED QUANTITY: GI50

{"columns": ["COMPOUND", "TARGET OR TEST SYSTEM", "READING"],
 "data": [
  ["CC1=NN=C(C)C1/N=N/c1ccc2[nH]c(C)nc2c1", "HOP-62", "26.4 µM (inactive)"],
  ["COC(=O)C1CC(C(=O)OC)c2nc3cc([N+](=O)[O-])ccc3nc21 (stereo not given)", "HOP-62", "> 52.8 µM (inactive)"],
  ["CN(C)CCCNC(=O)c1cc2/c(=C\\c3ccc(N(C)C)cc3)c3ccccc3n2[n+]1C", "HOP-62", "48.3 µM (inactive)"],
  ["Oc1c2cc(Br)cc1CCc1cc(Br)cc(c1O)CC2", "HOP-62", "28.6 µM (inactive)"],
  ["C[As+](C)(c1ccc(Br)c([N+](=O)[O-])c1)c1ccc(Br)c([N+](=O)[O-])c1", "HOP-62", "> 100 µM (inactive)"],
  ["O=C(CN1CCOCC1)c1ccc2c(c1)oc(=O)n2CCN1CCCC1", "HOP-62", "> 100 µM (inactive)"],
  ["O=C(CCC1CCCCN1)Nc1ccc2c(c1)C(=O)c1ccc(NC(=O)CCN3CCCCC3)cc1C2=O (stereo not given)", "HOP-62", "9.29 µM (inactive)"],
  ["CC(C)OC(=O)c1ccc(NCc2cc(O)ccc2O)cc1Cl", "HOP-62", "18.9 µM (inactive)"],
  ["Cc1ccc(N(C(=O)CC(=O)N2N=C(c3ccccc3)C(/N=N/c3ccc([N+](=O)[O-])cc3)C2=O)C(=O)c2ccc(Cl)cc2)cc1 (stereo not given)", "HOP-62", "10.3 µM (inactive)"],
  ["O=C(NCCCCl)c1c(O)c2ccccc2[nH]c1=O", "HOP-62", "> 50.6 µM (inactive)"]
]}

---

System: OVCAR-8
PROTOCOL SUMMARY: NCI tumour cell line growth inhibition, 48 h
Active and inactive are the calls of the source. Cut-off read from the data, not from the text of the source: active = GI50 up to about 1.1 µM and inactive = higher.
Labels: yes (active), no (inactive)

{"columns": ["MOLECULE", "QUALITATIVE LABEL"],
 "data": [
  ["CCC(C)C(C(=O)N/N=C1/SCC(=O)N1c1ccccc1)C(=O)N/N=C1/SCC(=O)N1c1ccccc1 (centres undefined)", "no"],
  ["CC(C)NC1CCCCC2c3cc(F)ccc3[C@]12O (some centres undefined)", "no"],
  ["COc1cc(/C=C/C2=C(C#N)C(=O)OC2(C)C)ccc1O", "no"],
  ["O=C1Oc2ccc([N+](=O)[O-])cc2N/C1=C\\C(=O)c1ccccc1", "no"],
  ["COC(OC)c1cccc2c1C1(O)CCC3(CC21)OCCCCO3 (centres undefined)", "no"],
  ["C[C@]12CC[C@H]3[C@@H](CC=C4C[C@@H](O)CC[C@@]43C)[C@@H]1CC[C@@H]2N(CCO)CCO", "no"],
  ["CNc1c2cccc(C)c2nc2c(C(=O)NCCN(C)C)cccc12", "yes"],
  ["CCOC(=O)C1S/C(=N\\c2ccc(Cl)c(Cl)c2)N=C1C (centres undefined)", "no"],
  ["C=C1[C@H](OC(=O)C(C)C)[C@@H](OC(C)=O)[C@@H](OC(C)=O)C(C)(C)[C@@H]2O[C@H]2[C@@H](C)C(=O)[C@@]2(OC(C)=O)C[C@@](C)(OC(C)=O)[C@H](OC(C)=O)[C@@H]2[C@H]1OC(C)=O", "no"],
  ["CC(=O)NC(Cc1c[nH]c2ccccc12)C(=O)O (centres undefined)", "no"],
  ["c1ccc2c(c1)c1c(n2CCOCCN2CCCC2)CCCC1", "no"],
  ["COc1cccc2c1C(=O)c1c(O)c3c(c(O)c1C2=O)C[C@@](O)(/C(C)=N/NC(=O)c1ccc(Cl)c(Cl)c1)C[C@@H]3OC1CC(N)C(O)C(C)O1 (some centres undefined)", "yes"],
  ["C/C([O-])=C(/c1nc(-c2ccc([N+](=O)[O-])o2)no1)[n+]1cc(C)ccc1C", "no"],
  ["Brc1ccc2c(c1)C1(c3cc(Br)ccc3-2)c2cc(Br)ccc2-c2ccc(Br)cc21", "no"],
  ["COc1ccc(C2=C(Cl)C(=O)O/C2=C\\c2ccc(OC)c(Br)c2)cc1Cl", "no"],
  ["Nc1ccc(C(=O)N/C(=C\\c2cccc([N+](=O)[O-])c2)c2nc3c4c(ccc3[nH]2)C(=O)c2ccccc2C4=O)cc1", "no"],
  ["c1ccc(COc2ncccc2C2SCCCS2)cc1", "no"],
  ["COc1cc2c(c(OC)c1OC)C(=O)[C@@H]1[C@H]2N1C(=O)NCCCl", "no"],
  ["Brc1ccccc2cc(-c3ccccc3)nc1-2", "no"]
]}
